Examples of molecules with documented IC50 follow.
# Test system: 134 cancer cell lines
# Measurement notes: Cell viability assay (ATPlite, 72 hours), IC50 on cancer cell line panel
# Measurement conditions: Homo sapiens, SW-620, read-out: IC50 in cell proliferation assay, cell line SW620
Entry rule: numbers only, all in nM.

Worked cases, IC50 given:
>>> observed("Cc1cc(Nc2ncc(Cl)c(Nc3ccccc3S(=O)(=O)C(C)C)n2)c(OC(C)C)cc1C1CCNCC1")
1560
>>> observed("Cn1cnc2c(F)c(Nc3ccc(Br)cc3Cl)c(C(=O)NOCCO)cc21")
24
>>> observed("CC(=O)Nc1cccc(-n2c(=O)n(C3CC3)c(=O)c3c(Nc4ccc(I)cc4F)n(C)c(=O)c(C)c32)c1")
17
>>> observed("C[C@H](Nc1ncnc2nc[nH]c12)c1cc2cccc(Cl)c2c(=O)n1-c1ccccc1")
20100

Next item in the queue.
Exercise: Value lookup for IC50; key = O=C(c1ccc(F)c(F)c1Nc1ccc(I)cc1F)N1CC(O)([C@@H]2CCCCN2)C1
Solution: 93

----------
# Test system: 134 cancer cell lines
# Measurement notes: Cell viability assay (ATPlite, 72 hours), IC50 on cancer cell line panel
# Measurement conditions: read-out: IC50 in cell proliferation assay, cell line SR (NPM1-ALK)
List of IC50 values.

Worked cases, answers included:
>>> observed("Cc1cc(Nc2ncnc3ccc(NC4=NC(C)(C)CO4)cc23)ccc1Oc1ccn2ncnc2c1 [tucatinib]")
"16.8 µM"
>>> observed("CC(C)(C)c1nc(-c2cccc(NS(=O)(=O)c3c(F)cccc3F)c2F)c(-c2ccnc(N)n2)s1 [dabrafenib]")
"1.76 µM"

Exercise: Using the record for C[C@H](Nc1ncnc2nc[nH]c12)c1cc2cccc(Cl)c2c(=O)n1-c1ccccc1 [duvelisib] , report its IC50.
Solution: 14.1 µM

----------
# Tested on: panel of 255 wild-type kinases (Homo sapiens)
# Measurement notes: Kinase panel profiling at 1 µmol/L (MSA or IMAP), percentage inhibition
# Assay type: biochemical
# Measurement conditions: MST4; 1 µmol/L single concentration; read-out: %-inhibition, MST4
Parameter measured: inhibition at 1 µM (%)
Response body: numeric value in %, unit text excluded.

>>> observed("Cn1cnc2c(F)c(Nc3ccc(Br)cc3F)c(C(=O)NOCCO)cc21")
0.492
>>> observed("Cc1nc(NC(=O)N2CCC[C@H]2C(N)=O)sc1-c1ccnc(C(C)(C)C(F)(F)F)c1")
-12
>>> observed("CN1CCN(c2ccc(C(=O)Nc3n[nH]c4ccc(Cc5cc(F)cc(F)c5)cc34)c(NC3CCOCC3)c2)CC1")
6

// next entry
Exercise: Recorded inhibition at 1 µM for COc1ccc(CN2C3CC2CN(c2ccc(-c4cc(OCC(C)(C)O)cn5ncc(C#N)c45)cn2)C3)cn1 , please?
Solution: 2.38

----------
# Tested on: panel of 255 wild-type kinases (Homo sapiens)
# Measurement notes: Kinase panel profiling at 1 µmol/L (MSA or IMAP), percentage inhibition
# Assay type: biochemical
# Measurement conditions: kinase TRKA; 1 µmol/L single concentration; read-out: %-inhibition at 1 µmol/L, TRKA
Values of inhibition at 1 µM greater than or equal to 10% map to Y; values below map to N.

>>> class_name("CCn1c(=O)c(-c2cc(NC(=O)Nc3ccccc3)c(F)cc2Br)cc2cnc(NC)cc21")
"Y"

With those in mind, consider the next compound.
Exercise: Tell me whether inhibition at 1 µM is at least 10% here: COC(=O)N[C@@H](C)CNc1nccc(-c2cn(C(C)C)nc2-c2cc(Cl)cc(NS(C)(=O)=O)c2F)n1
Solution: N

----------
# Tested on: panel of 255 wild-type kinases (Homo sapiens)
# Measurement notes: Kinase panel profiling at 1 µmol/L (MSA or IMAP), percentage inhibition
# Format: biochemical
# Measurement conditions: CHK2 kinase assay; 1 µmol/L single concentration; read-out: %-inhibition CHK2
# inhibition at 1 µM per entry
Reply with just the number (in %).

These recorded examples may help you get a feel for the data.
>>> observed("COC(=O)N[C@@H](C)CNc1nccc(-c2cn(C(C)C)nc2-c2cc(Cl)cc(NS(C)(=O)=O)c2F)n1 [encorafenib]")
7
>>> observed("CN1CCN(c2ccc(C(=O)Nc3n[nH]c4ccc(Cc5cc(F)cc(F)c5)cc34)c(NC3CCOCC3)c2)CC1 [entrectinib]")
31
>>> observed("C[C@H](Nc1ncnc2nc[nH]c12)c1cc2cccc(Cl)c2c(=O)n1-c1ccccc1 [duvelisib]")
-3.49

Exercise: Look up inhibition at 1 µM for this compound: CCN1CCN(c2ccc(Nc3cc(N(C)C(=O)Nc4c(Cl)c(OC)cc(OC)c4Cl)ncn3)cc2)CC1 [infigratinib]
Solution: -0.482

Exercise: Could you share which inhibition at 1 µM value was measured for CCN1C(=O)N(c2c(F)c(OC)cc(OC)c2F)Cc2cnc3[nH]c(CN4CCOCC4)cc3c21 [pemigatinib] ?
Solution: 3

Exercise: For the compound Cn1cnc2c(F)c(Nc3ccc(Br)cc3F)c(C(=O)NOCCO)cc21 [binimetinib] , what inhibition at 1 µM is on record?
Solution: 4.21

Exercise: So what's the measured inhibition at 1 µM for this one? Cc1cc(Nc2ncnc3ccc(NC4=NC(C)(C)CO4)cc23)ccc1Oc1ccn2ncnc2c1 [tucatinib]
Solution: 4

Exercise: Consider the compound O=C(Nc1cnn2ccc(N3CCC[C@@H]3c3cc(F)ccc3F)nc12)N1CC[C@H](O)C1 [larotrectinib] and give its measured inhibition at 1 µM.
Solution: 3.46

Exercise: Given the entry FC(F)(F)c1ccc(CNc2ccc(Cc3c[nH]c4ncc(Cl)cc34)cn2)cn1 [pexidartinib] , report its measured inhibition at 1 µM.
Solution: 11

Exercise: Value lookup for inhibition at 1 µM; key = Cc1nc(NC(=O)N2CCC[C@H]2C(N)=O)sc1-c1ccnc(C(C)(C)C(F)(F)F)c1 [alpelisib]
Solution: -1.14

Exercise: Which inhibition at 1 µM is reported for this compound? Cn1cc(-c2cc3c(N4CCN(c5ncc([C@@](C)(N)c6ccc(F)cc6)cn5)CC4)ncnn3c2)cn1 [avapritinib]
Solution: 5.47

Exercise: inhibition at 1 µM for COc1cc2ncnc(Nc3ccc(F)c(Cl)c3)c2cc1NC(=O)/C=C/CN1CCCCC1 [dacomitinib] ?
Solution: 23

Exercise: Any idea what inhibition at 1 µM was measured for CCn1c(=O)c(-c2cc(NC(=O)Nc3ccccc3)c(F)cc2Br)cc2cnc(NC)cc21 [ripretinib] ?
Solution: 6

Exercise: Fill in: inhibition at 1 µM of CCc1nc(C(N)=O)c(Nc2ccc(N3CCC(N4CCN(C)CC4)CC3)c(OC)c2)nc1NC1CCOCC1 [gilteritinib] is ___
Solution: 75

Exercise: Fill in: inhibition at 1 µM of CO[C@]1(C(=O)N[C@@H](C)c2ccc(-n3cc(F)cn3)nc2)CC[C@H](c2nc(C)cc(Nc3cc(C)[nH]n3)n2)CC1 [pralsetinib] is ___
Solution: 10

Exercise: Fill in: inhibition at 1 µM of C[C@H]1Oc2cc(cnc2N)-c2c(nn(C)c2C#N)CN(C)C(=O)c2ccc(F)cc21 [lorlatinib] is ___
Solution: 41

----------
# Tested on: panel of 255 wild-type kinases (Homo sapiens)
# Measurement notes: Kinase panel profiling at 1 µmol/L (MSA or IMAP), percentage inhibition
# Type: biochemical
# Measurement conditions: NEK4; 1 µmol/L single concentration; read-out: %-inhibition, NEK4
Consider the following compounds and their measured inhibition at 1 µM readings.
Number first, unit second.

See these solved cases before continuing.
>>> observed("Cn1cnc2c(F)c(Nc3ccc(Br)cc3F)c(C(=O)NOCCO)cc21")
"-1.67%"
>>> observed("COc1cc2ncnc(Nc3ccc(F)c(Cl)c3)c2cc1NC(=O)/C=C/CN1CCCCC1")
"-2.15%"
>>> observed("Cc1nc(NC(=O)N2CCC[C@H]2C(N)=O)sc1-c1ccnc(C(C)(C)C(F)(F)F)c1")
"-3%"
>>> observed("CCc1nc(C(N)=O)c(Nc2ccc(N3CCC(N4CCN(C)CC4)CC3)c(OC)c2)nc1NC1CCOCC1")
"50%"
>>> observed("C[C@H]1Oc2cc(cnc2N)-c2c(nn(C)c2C#N)CN(C)C(=O)c2ccc(F)cc21")
"-0.571%"

Exercise: Lookup: inhibition at 1 µM / panel of 255 wild-type kinases (Homo sapiens) / O=C(Nc1cnn2ccc(N3CCC[C@@H]3c3cc(F)ccc3F)nc12)N1CC[C@H](O)C1
Solution: 0.695%

Exercise: Form field: inhibition at 1 µM recorded for Cc1cc(Nc2ncnc3ccc(NC4=NC(C)(C)CO4)cc23)ccc1Oc1ccn2ncnc2c1 with panel of 255 wild-type kinases (Homo sapiens) (enter value)
Solution: 2.39%

Exercise: Can you look up inhibition at 1 µM on panel of 255 wild-type kinases (Homo sapiens) for CO[C@]1(C(=O)N[C@@H](C)c2ccc(-n3cc(F)cn3)nc2)CC[C@H](c2nc(C)cc(Nc3cc(C)[nH]n3)n2)CC1 ?
Solution: 2.56%

Origin of measurements: paper PMC9516332
